Cited source: patent US20230056252A1

Target: T1, biotinylated CD3 epsilon:delta heterodimer protein (Amsbio AMS.CDD-H52WO) (Homo sapiens (Human), UniProt P07766 23-126; P04234 22-105)
T1 construct: also called CD3 heterodimer
Experiment: BLI (Octet), CD3 on SA sensor, Fab analyte;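 also: biolayer interferometry with biotinylated CD3 epsilon:delta captured on streptavidin sensors, Fab analyte at several concentrations up to 300 nM, 100 s association then 300 s dissociation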
Binning rule for recorded kon: label 0 = under 300000 M⁻¹ s⁻¹, label 1 = from 300000 M⁻¹ s⁻¹ up to 400000 M⁻¹ s⁻¹, label 2 = 400000 M⁻¹ s⁻¹ and over

1. huSP34.6.4 Fab-HF (Fab, V domains shown, also called HC6+LC4) VH: EVQLVESGGGLVQPGGSLRLSCAASGFTFSTYAMNWVRQAPGKGLEWVGRIRSKYNNYATYYADSVKGRFTISRDNSKNTLYLQMNSLRAEDTAMYYCVRHGNFGNSYVSWFAVWGQGTLVTVSS VL: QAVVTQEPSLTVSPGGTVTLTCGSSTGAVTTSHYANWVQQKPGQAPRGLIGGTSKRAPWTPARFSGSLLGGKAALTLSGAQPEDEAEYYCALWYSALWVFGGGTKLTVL    label 1
2. huSP34.6.1 Fab-HF (Fab, V domains shown, also called HC6+LC1) VH: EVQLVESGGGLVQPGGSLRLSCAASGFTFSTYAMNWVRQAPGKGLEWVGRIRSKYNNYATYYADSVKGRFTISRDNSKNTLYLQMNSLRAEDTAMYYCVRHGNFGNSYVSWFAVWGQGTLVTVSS VL: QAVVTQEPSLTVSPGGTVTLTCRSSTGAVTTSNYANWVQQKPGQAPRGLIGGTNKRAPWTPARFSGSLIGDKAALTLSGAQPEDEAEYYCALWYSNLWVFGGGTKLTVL    label 2
3. huSP34.7.2 Fab-HF (Fab, V domains shown, also called HC7+LC2) VH: EVQLVESGGGLVQPGGSLRLSCAASGFTFSDYAMNWVRQAPGKGLEWVGRTRSKYNNYATYYAASVKGRFTISRDDSKNSLYLQMNSLKTEDTAVYYCVRHGNFGNSYVSWFAVWGQGTLVTVSS VL: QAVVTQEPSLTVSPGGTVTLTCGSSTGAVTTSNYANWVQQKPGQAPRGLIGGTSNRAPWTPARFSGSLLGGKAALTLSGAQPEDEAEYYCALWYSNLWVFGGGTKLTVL    label 1
4. huSP34.2.5 Fab-HF (Fab, V domains shown, also called HC2+LC5) VH: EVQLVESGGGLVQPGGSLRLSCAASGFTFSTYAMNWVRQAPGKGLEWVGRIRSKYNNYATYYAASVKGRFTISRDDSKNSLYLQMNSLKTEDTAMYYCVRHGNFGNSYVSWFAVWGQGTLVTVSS VL: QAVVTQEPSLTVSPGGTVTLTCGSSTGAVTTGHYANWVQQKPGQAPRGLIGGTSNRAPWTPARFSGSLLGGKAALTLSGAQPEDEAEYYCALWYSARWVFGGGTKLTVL    label 0
5. huSP34.8.5 Fab-HF (Fab, V domains shown, also called HC8+LC5) VH: EVQLVESGGGLVQPGGSLRLSCAASGFTFSDYAMNWVRQAPGKGLEWVGRTRSKYNNYATYYAASVKGRFTISRDDSKNSLYLQMNSLKTEDTAVYYCVRHGNFGHSYVSWFAVWGQGTLVTVSS VL: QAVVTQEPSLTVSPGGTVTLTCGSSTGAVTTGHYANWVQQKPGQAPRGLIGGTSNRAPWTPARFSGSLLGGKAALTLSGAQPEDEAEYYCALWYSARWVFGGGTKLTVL    label 2
6. huSP34.3.4 Fab-HF (Fab, V domains shown, also called HC3+LC4) VH: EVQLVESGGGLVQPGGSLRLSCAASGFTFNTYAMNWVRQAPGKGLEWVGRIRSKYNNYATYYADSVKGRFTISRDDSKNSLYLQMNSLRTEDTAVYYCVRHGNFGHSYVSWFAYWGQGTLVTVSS VL: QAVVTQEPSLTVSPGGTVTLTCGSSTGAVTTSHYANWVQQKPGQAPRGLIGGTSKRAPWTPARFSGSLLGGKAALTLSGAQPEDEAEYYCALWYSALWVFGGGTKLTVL    label 0
7. huSP34.7.4 Fab-HF (Fab, V domains shown, also called HC7+LC4) VH: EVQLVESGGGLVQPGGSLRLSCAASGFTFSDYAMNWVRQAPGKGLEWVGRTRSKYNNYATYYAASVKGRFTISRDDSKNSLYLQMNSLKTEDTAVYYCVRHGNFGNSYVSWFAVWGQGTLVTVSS VL: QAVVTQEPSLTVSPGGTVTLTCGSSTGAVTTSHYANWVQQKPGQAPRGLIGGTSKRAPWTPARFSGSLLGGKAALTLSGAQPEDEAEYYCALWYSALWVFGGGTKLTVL    label 0
8. huSP34.4.4 Fab-HF (Fab, V domains shown, also called HC4+LC4) VH: EVQLVESGGGLVQPGGSLRLSCAASGFTFSTYAMNWVRQAPGKGLEWVGRIRSKYNNYATYYAASVKGRFTISRDDSKNSLYLQMNSLRTEDTAVYYCVRHGNFGHSYVSWFAVWGQGTLVTVSS VL: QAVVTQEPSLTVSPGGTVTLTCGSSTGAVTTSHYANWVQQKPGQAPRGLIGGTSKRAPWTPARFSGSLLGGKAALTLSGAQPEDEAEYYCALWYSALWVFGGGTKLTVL    label 0
